// provenance: PubChem BioAssay

experiment: growth inhibitors of H69AR lung tumor, primary screen, human, duplicate replicates (AID 580); conditions: H69AR lung tumor cells viability, ATP luminescence, 72 h; at 10 µM; active compounds read low;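 also: 100% = mean luminescence of untreated wells and 0% = no signal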
Calls of active or inactive are those of the source.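 The calls were made as follows: active = viability at or under a set limit in both replicates, limit being median viability minus 3 SD (cut at about 48% in these data, passing the limit was not always enough); inconclusive = at or under the limit in just one replicate; inactive = at or above the limit in both replicates.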
MEASUREMENT TYPE: viability

// solved cases for viability follow
* CCCn1c(SCC(=O)N2CCc3ccccc3C2)nc2c1c(=O)n(C)c(=O)n2C | 84.9% (inactive)
* N#CC1=C(N)Oc2n[nH]c(-c3cccs3)c2C1c1cccs1 (configuration not stated) | 83.8% (inactive)
* CCCc1cc(=O)n2[nH]c(-c3ccc(Br)cc3)cc2n1 | 73.1% (inactive)
* Cc1ccc(C(c2nnnn2CCC(C)C)N2CCN(C)CC2)cc1 (configuration not stated) | 98.8% (inactive)
* COC(=O)c1cnc2c(C(F)(F)F)cccc2c1OC | 98.4% (inactive)

List viability for every entry below, keeping the order given.
1. CCN1C(=O)NC(c2cc(Br)ccc2OC)C(C(=O)OC)=C1C (configuration not stated)
2. FC(F)(F)c1cc(-c2ccccc2)nc(N2CCCCC2)n1
3. O=C1CC(N2CCOCC2)C(=O)N1c1ccccc1Cl (configuration not stated)
4. CCOC(=O)c1cnc(SCC)[nH]c1=O
5. COC(=O)c1cc(Br)c(=O)n(-c2ccc(OC)cc2)c1
6. CCC(C(=O)O)n1c(C(F)(F)F)nc2ccccc21 (configuration not stated)
7. O=C(c1ccccc1)c1coc2ccc(O)c(CN3CCOCC3)c12
8. Cc1ccc(C(=O)Nc2ccc3c(c2)OCO3)cc1S(=O)(=O)N1CCCC1

Reply:
1: 95.3% (inactive); 2: 98.1% (inactive); 3: 104% (inactive); 4: 97% (inactive); 5: 94.5% (inactive); 6: 103% (inactive); 7: 88.5% (inactive); 8: 82.6% (inactive)

----------
experiment: HUVEC growth inhibition – cell-based, human, primary screen (AID 575); settings: HUVEC proliferation, CellTiter-Glo luminescence, 72 h; at 10 µM; active compounds read low;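 also: 100% = median of untreated cell wells with 0.1% DMSO on each plate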
Kindly state viability for each of the entries shown.
Give bare numbers, in %.

// worked examples, viability included
• CCOC(=O)c1c(C)n(C)c2ccc(OC)c(NC(=O)CCN3CCSCC3)c12 = 96.7
• CN(C)CCCn1c(N)c(C#N)c2nc(C#N)c(C#N)nc21 = 66.9
• CCOc1cc(C(=O)N2CCN(c3ccccc3)CC2)cc(OCC)c1OCC = 90.1
• Cc1c2c(nc3nc4ccccc4n13)CC(C)(C)CC2=O = 91.1
• Cc1nnc(SCc2cnc(-c3ccccc3)o2)[nH]c1=O = 86.7
• COc1ccc(N(C(=O)c2ccco2)S(=O)(=O)c2cc(OC)ccc2OC)cc1 = 81
• CCOC(=O)C1CCN(C(=O)CSc2n[nH]c(=O)[nH]c2=O)CC1 = 94.6
• Oc1ccc2cccnc2c1 = 107
• CC(NCc1ccco1)C(=O)N1CCc2ccccc2C1 (centres undefined) = 109
• O=C(Nc1ccon1)c1csc2c1CCCC2 = 83.2

Below are 5 compounds. Give each one its viability.
1. CCCn1c2c(c(O)c(C(=O)Nc3ccc(C)cn3)c1=O)CCCC2
2. O=C(NC1CCCC1)C(c1ccco1)N(Cc1ccccc1)C(=O)c1csnn1 (centres undefined)
3. C=CCn1cnc2c(NCc3ccccc3)ncnc21
4. COc1ccc(C(=O)N2CCN(c3nc4cc(C)ccc4cc3C#N)CC2)c(OC)c1
5. CCOC(=O)COc1ccc(C2NC(C(=O)O)CS2)cc1 (centres undefined)

Reply:
1. 96.8
2. 76.4
3. 96.9
4. 88.1
5. 83.4
